- Target System: T1, Human TMPRSS2 recombinant protein, extracellular region (N-terminal His tag, C-terminal Strep-tag II) (human, UniProt O15393 106-492)
- T1 construct: also called Human TMPRSS2 recombinant proteins; extracellular region of human TMPRSS2
- T1 sequence (O15393 other isoform, or with tags, fused parts or gaps limits assumed): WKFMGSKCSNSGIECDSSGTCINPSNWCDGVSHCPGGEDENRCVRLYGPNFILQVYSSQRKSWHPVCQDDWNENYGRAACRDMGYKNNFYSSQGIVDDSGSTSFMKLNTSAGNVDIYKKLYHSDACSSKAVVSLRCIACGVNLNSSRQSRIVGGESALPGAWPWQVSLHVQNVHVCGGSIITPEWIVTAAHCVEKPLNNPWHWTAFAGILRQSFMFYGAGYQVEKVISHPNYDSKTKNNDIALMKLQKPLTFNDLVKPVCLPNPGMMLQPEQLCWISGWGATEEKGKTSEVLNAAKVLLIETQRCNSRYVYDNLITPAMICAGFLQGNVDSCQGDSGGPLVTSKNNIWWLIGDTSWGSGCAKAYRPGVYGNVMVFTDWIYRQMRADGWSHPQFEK
- Experimental Protocol: SPR (BIAcore), captured mAb, soluble human TMPRSS2 extracellular region
Reported Metric: koff
# number then unit; no other words

Binder: 1831_15 antibody (antibody, V domains shown) VH: QVQLQQPGAELVKPGASVKLSCKASGYSFTTYWMHWVRQRPGQGLEWIGIIHPNSGTTNYNEKFKSKASLTVDKSSSTAYMQLSSLTSEDSAVYYCARLLWDYFDYWGQGTTLTVSS VL: DIVMSQSPSSLAVSAGEKVTMSCKSSQSLLNSRTRKNFLAWYQQKPGQSPKLLIYWASTRESGVPDRFTGSGSGTDFTLTISSVQAEDLAVYYCKQSYNLYTFGGGTKLEIK
koff: 0.000236 s⁻¹
//
Binder: 2020_12 antibody (antibody, V domains shown) VH: QVQLQQPGAELAKPGASVKLSCKASGYTFTSYWMHWVKQRPGQGLEWIGLIPPNSGSSNYNEKFKSKATLTVDKSSRTAYMQLSSLTSEDSAVYYCARWDYGSSYGYFDVWGTGTTVTVSS VL: DIVLTQSPASLAVSLGQRATISCRASESVSTSGYSYMHWYQQKPGQPPKLLIYLASNLESGVPVRFSGSGSGTDFTLNIHPVEEEDAATYYCQHSRELPPTFGAGTKLELK
koff: 0.00176 s⁻¹
//
Binder: 2114_16 antibody (antibody, V domains shown, also called 2114 antibody) VH: EVQLQQSGPELVKPGASVKISCKASGYTFTDYYMNWVKRRHGKSLEWIGNINPNNGGTSYNQKFKGKATLTVDKSSSTAYMELRSLTSEDSVVYYCAREGDLFPFAYWGQGTLVTVSA VL: QAVVTQESALTTSPGETVTLTCRSSIGTVTTSNFANWVQEKPDHLFTGLIGASNNRAPGVPARFSGSLIGDKAALTITGAQTEDEAIYFCALWFSNHWVFGGGTKLTVL
koff: 0.000591 s⁻¹

Ask: // returns reported koff for input 1864_10 antibody (antibody, V domains shown) VH: QVQLQQSGPALVKPGASLKISCEASGYTFTYYSINWVKQRPGQGLEWIGWIFPGSGSTYYNEKFKGKATLTIDKSSSTAYMLLSSLTSEDSAVYFCARSDYGSAYGYFDVWGTGTTVTVSS VL: DIVLTQSPASLAVSLGQRATISCRASKSVSTSGYSYMHWYQQKPGQPPKLLIYLASNLESGVPARFSGSGSGTDFTLNIHPVEEEDAATYYCQHSRDLPLTFGAGTKLELK
Result: 0.00289 s⁻¹
